For each of the molecules below, state its normalised cell viability.
system: V-C8 (BRCA2-deficient hamster cells); test: normalised cell viability (fraction of plate median); higher = more viable cells (less toxic); details: treatment time: 6 days; 5 µM
Counter-ions that a name gives are not always drawn. The full ranking holds about 1,300 compounds; the median of “normalised cell viability” is about 1, and the lowest 2% start at about 0.14. The entries come from a sample that favours the lowest values as a whole.

Answer with the recorded normalised cell viability of CCC(Cc1c(I)cc(I)c(N)c1I)C(=O)O (centres undefined) only.
1.07

Please indicate normalised cell viability recorded for Cc1ncc(C[n+]2csc(CCO)c2C)c(N)n1 [Thiamine hydrochloride]
1.05

Specify normalised cell viability for Clc1ccc(CO/N=C(\Cn2ccnc2)c2ccc(Cl)cc2Cl)c(Cl)c1 [Oxiconazole Nitrate] and stop.
0.898

In one line, give reported normalised cell viability of the entry CO[C@H]1/C=C/O[C@@]2(C)Oc3c(C)c(O)c4c(O)c(c5c(nc6cc(C)ccn65)c4c3C2=O)NC(=O)/C(C)=C\C=C\[C@H](C)[C@H](O)[C@@H](C)[C@@H](O)[C@@H](C)[C@H](OC(C)=O)[C@@H]1C .
0.928

Supply measured normalised cell viability of CN1CCN(C(c2ccccc2)c2ccc(Cl)cc2)CC1 (centres undefined) [Chlorcyclizine hydrochloride] in your reply.
0.979

Fill in reported normalised cell viability for this entry: CC(=O)N(O)CCCCCNC(=O)CCC(=O)N(O)CCCCCNC(=O)CCC(=O)N(O)CCCCCN [Deferoxamine mesylate]
0.198

Determine from records and report normalised cell viability for CC(C)(C)NC[C@H](O)COc1nsnc1N1CCOCC1 [Timolol maleate salt]
1.07

Input Cc1ccnc2c1NC(=O)c1cccnc1N2C1CC1 , output reported normalised cell viability.
0.994

Entry CCCCCNC(=N)N/N=C/c1c[nH]c2ccc(OC)cc12 [Tegaserod maleate] needs its normalised cell viability filled in; supply it.
0.164

Indicate the recorded normalised cell viability value for this molecule: Cc1cnc(C(=O)NCCc2ccc(S(=O)(=O)NC(=O)NC3CCCCC3)cc2)cn1 [Glipizide]
1.13

Supply recorded normalised cell viability for COc1cccc2c1C(=O)c1c(O)c3c(c(O)c1C2=O)C[C@@](O)(C(C)=O)C[C@@H]3O[C@H]1C[C@H](N)[C@H](O)[C@H](C)O1 [Daunorubicin hydrochloride] here.
0.124

Look up and state reported normalised cell viability for COc1c(O[C@@H]2O[C@H](CO)[C@@H](O)[C@H](O)[C@H]2O)cc2c(c1OC)-c1ccc(SC)c(=O)cc1[C@@H](NC(C)=O)CC2 [Thiocolchicoside]
0.97

Provide only the value of recorded normalised cell viability for Cc1cc(NC(=O)C2=C(O)c3ccccc3S(=O)(=O)N2C)no1
1.06

Report normalised cell viability for C=CC(N)CCC(=O)O (centres undefined)
1.03

State its normalised cell viability: CN[C@H](CC(C)C)C(=O)N[C@H]1C(=O)N[C@@H](CC(N)=O)C(=O)N[C@H]2C(=O)N[C@H]3C(=O)N[C@H](C(=O)N[C@H](C(=O)O)c4cc(O)cc(O)c4-c4cc3ccc4O)[C@H](O)c3ccc(c(Cl)c3)Oc3cc2cc(c3O[C@@H]2O[C@H](CO)[C@@H](O)[C@H](O)[C@H]2O[C@H]2C[C@](C)(N)[C@H](O)[C@H](C)O2)Oc2ccc(cc2Cl)[C@H]1O [Vancomycin hydrochloride]
0.141

Report normalised cell viability, nothing else, for this molecule: O=C1[C@H](CC[C@H](O)c2ccc(F)cc2)[C@@H](c2ccc(O)cc2)N1c1ccc(F)cc1
1.03

Supply reported normalised cell viability belonging to this molecule: Nc1c2c(nc3ccccc13)CCCC2 [Tacrine hydrochloride]
1.1

Query normalised cell viability for CC[N+](CC)(CC(=O)Nc1c(C)cccc1C)Cc1ccccc1 [Denatonium benzoate]
1.07

Report measured normalised cell viability; entry is CC(=O)O[C@H]1C[C@@H]2CC[C@@H]3[C@H](CC[C@@]4(C)[C@H]3C[C@H]([N+]3(C)CCCCC3)[C@@H]4OC(C)=O)[C@@]2(C)C[C@@H]1N1CCCCC1 [Vecuronium bromide]
1.04

Assign normalised cell viability to the following record: CC(C)(C(=O)O)c1ccc(C(O)CCCN2CCC(C(O)(c3ccccc3)c3ccccc3)CC2)cc1 (centres undefined) [Fexofenadine HCl]
1.04

Answer with the recorded normalised cell viability for the molecule listed here: CC(CN(C)C)C(C)(O)Cc1ccc(Cl)cc1 (centres undefined) [Clobutinol hydrochloride]
1.11

Name the recorded normalised cell viability of the item C=CC[N@@+]12CC[C@@]34c5ccccc5N5/C=C6/[C@H]7C[C@H]8[C@@]9(CC[N@@+]8(CC=C)C/C7=C/CO)c7ccccc7N(/C=C(/[C@@H](C[C@@H]31)/C(=C\CO)C2)[C@H]54)[C@@H]69 [Alcuronium chloride] in your answer.
1.03

For the molecule Nc1c2ccccc2nc2ccccc12 , give its measured normalised cell viability value.
0.164

Entry CN(C)CCn1nnnc1SCC1=C(C(=O)O)N2C(=O)[C@@H](NC(=O)Cc3csc(N)n3)[C@H]2SC1 [Cefotiam hydrochloride] needs its normalised cell viability filled in; supply it.
1.12

Please supply the value of reported normalised cell viability for the item COC1=C(OC)C(=O)C(CCCCCCCCCCO)=C(C)C1=O
0.713

Find the measured normalised cell viability of Cc1cccc(N(C)C(=S)Oc2ccc3ccccc3c2)c1 [Tolnaftate] and report it.
0.983

Please list normalised cell viability recorded for the molecule COc1cccc2c1C(=O)c1c(O)c3c(c(O)c1C2=O)C[C@@](O)(C(=O)CO)C[C@@H]3O[C@H]1C[C@H](N)[C@@H](O)[C@H](C)O1 [Epirubicin hydrochloride]
0.163

Give the reported value of normalised cell viability for this record: NCCCC(O)(P(=O)(O)O)P(=O)(O)O [Alendronate sodium]
0.515

Kindly indicate its recorded normalised cell viability. Item: OC(CCCN1CCCCC1)(c1ccccc1)c1ccccc1 [Diphenidol hydrochloride]
1.05
